target: ternary complex comprising RAS and CypA; KRAS^G12D (Homo sapiens, UniProt P01116+P62937, G12D); test: Ternary complex binding assay (BLI), KRAS G12D; conditions: GMPPNP-loaded KRAS^G12D, fixed concentration of CypA, pH 7.4, read-out: KD2 (ternary complex equilibrium dissociation constant)
Sequence (P01116 1-188 isoform P01116-2 G12D): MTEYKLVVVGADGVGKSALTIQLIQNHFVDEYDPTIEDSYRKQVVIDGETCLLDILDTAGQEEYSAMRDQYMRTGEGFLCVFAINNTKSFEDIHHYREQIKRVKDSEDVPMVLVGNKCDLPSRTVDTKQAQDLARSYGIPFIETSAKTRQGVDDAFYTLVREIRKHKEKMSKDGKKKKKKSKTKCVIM
Sequence (P62937 whole entry): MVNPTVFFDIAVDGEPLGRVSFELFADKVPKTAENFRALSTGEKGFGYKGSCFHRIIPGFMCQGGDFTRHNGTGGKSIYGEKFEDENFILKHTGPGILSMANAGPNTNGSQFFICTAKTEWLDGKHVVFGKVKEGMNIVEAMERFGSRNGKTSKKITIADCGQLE
For each of the molecules below, state its Kd.
Answers are plain numbers, in nM.

MOLECULE	TEST VALUE
CO[C@@H](C)c1ncc(-c2nnc(C3CCN(C4CN(C(C)C)C4)CC3)o2)cc1-c1c2c3cc(ccc3n1CC(F)(F)F)-c1csc(n1)C[C@H](NC(=O)[C@H]1[C@H](C)[C@@H]1C)C(=O)N1CCC[C@H](N1)C(=O)OCC(C)(C)C2 (atropisomer, axis not shown) [Compound 10]	17
CO[C@@H](C)c1ncc(-c2nnc(C3CCN(C4COC4)CC3)o2)cc1-c1c2c3cc(ccc3n1CC(F)(F)F)-c1csc(n1)C[C@H](NC(=O)C1[C@@H](C)[C@H]1C)C(=O)N1N[C@H](C(=O)OCC(C)(C)C2)C2CC1C2 (stereo partly drawn) [Compound 8]	8.8
CCn1c(-c2cc(-c3nnc(C4CCN(C5CN(C(C)C)C5)CC4)o3)cnc2[C@H](C)OC)c2c3cc(ccc31)-c1csc(n1)C[C@H](NC(=O)[C@H]1C[C@@H]1C)C(=O)N1CCC[C@H](N1)C(=O)OCC(C)(C)C2 (atropisomer, axis not shown) [Compound 7]	19
CO[C@@H](C)c1ncc(-c2nnc(C3CCN(C4COC4)CC3)o2)cc1-c1c2c3cc(ccc3n1CC(F)(F)F)-c1csc(n1)C[C@H](NC(=O)[C@H]1[C@H](C)[C@@H]1C)C(=O)N1CCC[C@H](N1)C(=O)OCC(C)(C)C2 (atropisomer, axis not shown) [Compound 6]	24
CCn1c(-c2cc(-c3nc(C4CCN(C5COC5)CC4)n(C)n3)cnc2[C@H](C)OC)c2c3cc(ccc31)-c1csc(n1)C[C@H](NC(=O)[C@H]1[C@H](C)[C@@H]1C)C(=O)N1CCC[C@H](N1)C(=O)OCC(C)(C)C2 (atropisomer, axis not shown) [Compound 4]	43

// moving on: another record for Kd
INPUT: Which Kd reading was recorded for the molecule CO[C@@H](C)c1ncc(-c2nnc(C3CCN(C4COC4)CC3)o2)cc1-c1c2c3cc(ccc3n1CC(F)(F)F)-c1csc(n1)C[C@H](NC(=O)[C@H]1C[C@@H]1C)C(=O)N1CCC[C@H](N1)C(=O)OCC(C)(C)C2 (atropisomer, axis not shown) [Compound 5] ?
OUTPUT: 27
